// provenance: PubChem BioAssay (NCATS)

Test system: HaCat
Experiment: Cytotoxic Profiling of Annotated Libraries Using Quantitative High-Throughput Screening (AID 1296008); note: nearly all actives have a fitted effect of over 60% in size
Settings: Five cell lines viability, CellTiter-Glo ATP luminescence, 48-72 h
Results filed as inconclusive are left out. Activity calls are given as the source filed them. Calls come from the whole dose curve; as a rule, active = well fitted inhibition curve with a large enough effect; inconclusive = small, poorly fitted or top-dose-only effect; inactive = flat fitted curve, though single readings scatter.
Respond with a class label; see label 1 = active, label 0 = inactive

compound	qualitative label
COC1C(O)C(OC2CCC3(C)C(CCC45CCC6C7(COC(=O)C7)OC4(O)C6(C)CCC35)C2)OC(C)C1OC1OC(CO)C(OC2OC(CO)C(O)C(O)C2O)C(O)C1O (centres undefined)	label 0
CC(C)OC(=O)N1CCC(Oc2ncnc3c2cnn3-c2ccc(S(C)(=O)=O)cc2F)CC1	label 0
C=C1[C@@H](OC(C)=O)CC[C@@]2(C)[C@@H](OC(C)=O)[C@H](OC(C)=O)C3=C(C)C[C@H](OC(=O)C(C)CC)[C@@H]([C@@H](OC(C)=O)[C@H]12)C3(C)C (some centres undefined)	label 1
COc1cc2ncnc(Nc3cccc(I)c3)c2cc1OC	label 1
C=C1CCCC2(C)CCC(C(C)(C)OC3OC(C)C(O)C(O)C3OC(=O)/C(C)=C\C)CC12 (centres undefined)	label 0
O=C(NCc1nc2ccccc2c(=O)n1-c1ccc(F)cc1)Nc1ccc(Cl)c(C(F)(F)F)c1	label 0

**Q:** Could you kindly confirm the outcome this assay logged for COC(=O)N1CC2(CC2)C[C@H](C(=O)NO)[C@H]1C(=O)N1CCN(c2ccccc2)CC1 ?
**A:** label 1

**Q:** Test call for this compound, please: COc1ccc(-n2c(SCCCN3C(=O)c4cccc5cccc(c45)C3=O)nnc2-c2ccncc2)cc1
**A:** label 0

**Q:** Short answer needed: outcome of this test for O=C(NCc1cccs1)c1cc2nc(-c3ccco3)cc(C(F)(F)Cl)n2n1 ?
**A:** label 0

**Q:** Query: recorded result category for Cc1cc(C(=O)Cn2cc(C#N)ccc2=O)c(C)n1Cc1ccccc1 in this test
**A:** label 0

**Q:** What was the test verdict on O=C([C@@H](Cc1cccc(C(F)(F)F)c1)NS(=O)(=O)c1cc(F)c2c(c1)CCNC2)N1CCCC1 ?
**A:** label 0

**Q:** Hi, sorry to bother you, what did the test record for COc1cc2c(Nc3cc(F)c(Cl)c(Cl)c3)ncnc2cc1OCC1CCCN(C)CCC1 ?
**A:** label 1

**Q:** Give the logged outcome of this assay for the following compound: Cc1cc(C(C)Nc2ccccc2C(=O)O)c2nc(N3CCOCC3)cc(=O)n2c1 (centres undefined)
**A:** label 1

**Q:** Answer briefly: the call reported for O=[N+]([O-])c1ccc(Oc2ccc3c(c2)CCC(c2ccccc2)O3)nc1 (centres undefined) in this assay.
**A:** label 0
